# System: Pontoscolex corethrurus
# protocol_conditions: acute; mortality
LC50 listing for selected molecules.
test_readout: LC50 (mg/kg)

molecule="CC(=O)OC(C)c1ccccc1 (racemic) [(+/-)-alpha-Methylbenzyl acetate]" test_readout=LC50 quantitative_readout=1480
molecule="CCC(C)c1nccnc1OC (centres undefined)" test_readout=LC50 quantitative_readout=235
molecule="O=C1CCSC1 [3(2H)-Thiophenone, dihydro-]" test_readout=LC50 quantitative_readout=305
molecule="CC(=O)CCc1ccc(O)cc1 [4-(4-Hydroxyphenyl)butan-2-one]" test_readout=LC50 quantitative_readout=248

----------
Each record here notes measured LD50.
# System: Apis mellifera
# protocol_conditions: acute; oral; unspecified; mortality
test_readout: LD50

compound="CC(=O)O [Acetic acid]" result="> 110 µg/piece"
compound="CN/C(=N\\[N+](=O)[O-])NCc1cnc(Cl)s1 [Clothianidin]" result="0.00379 µg/piece"
compound="OC[C@H]1OC(O[C@H]2[C@H](O)[C@@H](CO)OC(O[C@H]3[C@H](O)[C@@H](CO)OC(O)[C@@H]3O)[C@@H]2O)[C@H](O)[C@@H](O)[C@@H]1O (some centres undefined) [Laminaran]" result="> 119 µg/piece"
compound=C[C@@H]1O[C@H](O[C@H]2[C@H](O[C@H]3[C@@H](OC[C@H]4O[C@@H](O[C@@H]([C@H](O)[C@@H](O)CO)[C@H](O)CO)[C@H](O)[C@@H](O)[C@@H]4O[C@@H]4O[C@H](CO[C@H]5OC[C@@H](O)[C@H](O)[C@H]5O)[C@@H](O)[C@H](O)[C@H]4O)OC[C@@H](O)[C@@H]3O)O[C@H](CO)[C@H](O)[C@@H]2O)[C@@H](O)[C@H](O)[C@@H]1O result="> 100 µg/piece"

----------
# System: Rattus norvegicus
# protocol_conditions: acute; oral; mortality
Reported LD50 values are given for each entry in this list.
test_readout: LD50

molecule="C#CCOc1ccc(CCNC(=O)C(OCC#C)c2ccc(Cl)cc2)cc1OC (centres undefined)" tgt="Rattus norvegicus" test_readout=LD50 result="> 5000 mg/kg-day"
molecule="[Ca+2].[S-]SSS[S-] [Calcium polysulfide]" tgt="Rattus norvegicus" test_readout=LD50 result="1340 mg/kg-day"
molecule="CSSC [Methyl disulfide]" tgt="Rattus norvegicus" test_readout=LD50 result="> 125 mg/kg"
molecule="OC[C@H]1OC(O[C@H]2[C@H](O)[C@@H](CO)OC(O[C@H]3[C@H](O)[C@@H](CO)OC(O)[C@@H]3O)[C@@H]2O)[C@H](O)[C@@H](O)[C@@H]1O (some centres undefined)" tgt="Rattus norvegicus" test_readout=LD50 result="> 2000 mg/kg-day"
molecule=CCCCCC/C=C/C(C)=O tgt="Rattus norvegicus" test_readout=LD50 result="> 5000 mg/kg-day"
molecule=O=C(O)c1ccccc1 tgt="Rattus norvegicus" test_readout=LD50 result="> 1700 mg/kg-day"
molecule="CC1=CC(=O)CC(C)(C)[C@@]1(O)/C=C/C(C)=C\\C(=O)O [(+)-(S)-Abscisic acid]" tgt="Rattus norvegicus" test_readout=LD50 result="> 5000 mg/kg-day"
molecule=CC(C)=CCC/C(C)=C/CO tgt="Rattus norvegicus" test_readout=LD50 result="3600 mg/kg-day"
molecule=C[C@@H]1O[C@H](O[C@H]2[C@H](O[C@H]3[C@@H](OC[C@H]4O[C@@H](O[C@@H]([C@H](O)[C@@H](O)CO)[C@H](O)CO)[C@H](O)[C@@H](O)[C@@H]4O[C@@H]4O[C@H](CO[C@H]5OC[C@@H](O)[C@H](O)[C@H]5O)[C@@H](O)[C@H](O)[C@H]4O)OC[C@@H](O)[C@@H]3O)O[C@H](CO)[C@H](O)[C@@H]2O)[C@@H](O)[C@H](O)[C@@H]1O tgt="Rattus norvegicus" test_readout=LD50 result="> 5000 mg/kg-day"
